B1: Arginine-glutamic acid dipeptide repeats protein, residues 502 to 543; numbered along this chain, Q9P2R6 (parent)
chain: LKGYACRHCFTTTSKDWHHGGRENILLCTDCRIHFKKYGELP

Variants of: B1
Assay: abundance fitness (aPCA) (normalised: wild type 0, dead -1); higher = more abundant; growth selection in yeast, the domain comes from the species named
Settings: Homo sapiens
The reader will find reported abundance fitness values listed item by item below.

| MUTANT ID | abundance fitness |
| --- | --- |
| L26G | -0.307 |
| F10R | -0.014 |
| G21Y | -0.534 |
| G39P | -0.478 |
| D30I | -0.404 |
| P42R | -0.654 |
| G39D | 0.053 |
| A5T | 0.04 |
| L41H | -0.416 |
| I33M | -0.007 |
| L27W | -0.259 |
| L41A | -0.317 |
| L1M | 0.076 |
| R32D | -0.001 |
| I25H | -0.169 |
| L41G | -0.276 |
